Method: Human liver microsome assay
Type: in vitro ADME
Run Conditions: 1 uM substrate, 0.5 mg/mL liver microsome, 2 mM NADPH, 37° C., referenced against time zero control
Quantity Measured: HLM: percent unchanged after 30 min (%)

a = NS(=O)(=O)c1cccc(NC(=O)c2cc(C(F)(F)F)ccc2Oc2ccc(F)cc2)c1
b = Cc1cc(C(=O)Nc2cccc(S(N)(=O)=O)c2)c(Oc2ccc(F)cc2)cc1Cl
Could you please tell me which of these two has the higher HLM: percent unchanged after 30 min: a or b ? To answer, give the label that identifies your chosen option.
a
(a: 117%, b: 78%)

---

System Name: human Nav1.8 (Homo sapiens (Human))
Sequence (Q9Y5Y9 whole entry): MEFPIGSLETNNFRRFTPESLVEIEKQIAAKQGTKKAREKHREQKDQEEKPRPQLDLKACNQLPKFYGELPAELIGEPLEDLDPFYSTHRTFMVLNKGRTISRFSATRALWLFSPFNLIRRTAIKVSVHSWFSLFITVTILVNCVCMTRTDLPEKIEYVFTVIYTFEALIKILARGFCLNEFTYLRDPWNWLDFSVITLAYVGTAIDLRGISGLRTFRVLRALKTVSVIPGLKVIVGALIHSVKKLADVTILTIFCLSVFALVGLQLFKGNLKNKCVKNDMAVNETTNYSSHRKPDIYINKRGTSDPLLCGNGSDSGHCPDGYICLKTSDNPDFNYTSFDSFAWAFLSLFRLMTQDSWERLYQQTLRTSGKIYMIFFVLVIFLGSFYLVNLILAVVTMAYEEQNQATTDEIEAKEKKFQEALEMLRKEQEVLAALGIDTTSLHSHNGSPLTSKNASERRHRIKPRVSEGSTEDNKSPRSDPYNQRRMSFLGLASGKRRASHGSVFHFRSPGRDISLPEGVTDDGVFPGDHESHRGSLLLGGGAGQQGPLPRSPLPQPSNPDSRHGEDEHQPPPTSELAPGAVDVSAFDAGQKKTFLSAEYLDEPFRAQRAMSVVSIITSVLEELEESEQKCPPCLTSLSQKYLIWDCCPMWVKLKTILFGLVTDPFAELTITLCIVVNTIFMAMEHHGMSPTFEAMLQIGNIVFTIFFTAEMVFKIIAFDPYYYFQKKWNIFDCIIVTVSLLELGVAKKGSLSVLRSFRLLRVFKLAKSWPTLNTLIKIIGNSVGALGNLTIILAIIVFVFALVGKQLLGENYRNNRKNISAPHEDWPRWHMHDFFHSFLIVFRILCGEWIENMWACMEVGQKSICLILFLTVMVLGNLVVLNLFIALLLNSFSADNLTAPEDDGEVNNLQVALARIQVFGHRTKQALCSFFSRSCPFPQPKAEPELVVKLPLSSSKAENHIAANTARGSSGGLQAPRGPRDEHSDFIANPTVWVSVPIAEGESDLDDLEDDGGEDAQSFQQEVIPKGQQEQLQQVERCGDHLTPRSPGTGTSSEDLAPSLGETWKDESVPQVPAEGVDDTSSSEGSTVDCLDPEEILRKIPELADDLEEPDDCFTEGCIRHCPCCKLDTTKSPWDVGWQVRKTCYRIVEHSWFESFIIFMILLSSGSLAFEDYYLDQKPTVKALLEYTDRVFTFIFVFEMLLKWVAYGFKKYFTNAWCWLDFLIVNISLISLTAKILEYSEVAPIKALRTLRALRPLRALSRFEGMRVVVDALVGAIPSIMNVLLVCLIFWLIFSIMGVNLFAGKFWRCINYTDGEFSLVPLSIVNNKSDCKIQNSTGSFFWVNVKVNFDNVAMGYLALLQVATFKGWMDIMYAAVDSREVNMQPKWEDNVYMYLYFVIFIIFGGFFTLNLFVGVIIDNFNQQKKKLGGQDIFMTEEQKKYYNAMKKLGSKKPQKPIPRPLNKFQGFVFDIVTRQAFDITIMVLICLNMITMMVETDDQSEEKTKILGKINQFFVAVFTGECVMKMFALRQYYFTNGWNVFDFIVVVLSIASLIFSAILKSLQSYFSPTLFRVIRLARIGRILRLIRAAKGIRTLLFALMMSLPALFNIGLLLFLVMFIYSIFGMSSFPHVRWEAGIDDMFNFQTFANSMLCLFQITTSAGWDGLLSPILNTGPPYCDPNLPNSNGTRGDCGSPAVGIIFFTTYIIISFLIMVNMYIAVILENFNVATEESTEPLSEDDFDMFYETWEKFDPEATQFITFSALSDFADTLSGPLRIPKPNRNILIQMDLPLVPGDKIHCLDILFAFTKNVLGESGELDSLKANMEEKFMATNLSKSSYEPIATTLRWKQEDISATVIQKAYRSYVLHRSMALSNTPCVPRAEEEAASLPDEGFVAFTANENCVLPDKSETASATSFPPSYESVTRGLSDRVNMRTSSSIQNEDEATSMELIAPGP
Method: E-VIPR optical membrane potential assay with electrical stimulation
Run Conditions: HEK cells expressing human Nav1.8
Experimental: E-VIPR Optical Membrane Potential Assay Method with Electrical Stimulation Sodium channels are voltage-dependent proteins that can be activated by inducing membrane voltage changes by applying electric fields. […] 7) Read Plate on E-VIPR. […] Data was analyzed and reported as normalized ratios of emission intensities measured in the 460 nm and 580 nm channels. […]
pIC50: −log10 of the molar value.
Quantity Measured: pIC50

a = NS(=O)(=O)c1cccc(NC(=O)c2cc(Cl)ccc2Oc2ccc(F)cc2Cl)c1 [Compound 17]
b = NS(=O)(=O)c1cccc(NC(=O)c2ccc(C(F)(F)F)cc2Oc2ccccc2Cl)c1 [Compound 73]
Between the entries labelled a and b , which has a larger pIC50 value on record? Please respond with the label that marks your chosen entry.
a
(a: 8.30, b: 7.59)

P = COc1ccc(Oc2cc(C(F)(F)F)cc(C(F)(F)F)c2C(=O)Nc2cccc(S(N)(=O)=O)c2)cc1F [Compound 90]
Q = COc1ccc(Oc2cc(C(F)(F)F)cc(C3CC3)c2C(=O)Nc2cccc(S(N)(=O)=O)c2)cc1F [Compound 100]
# query: argmin of pIC50 over P and Q Select an item and report its label.
Q
(Q: 7.74, P: 8.15)
